Provide the recorded polymerase ribozyme fitness (log ratio) for the entries that follow.
B1: TPR 5TU (parent)
chain: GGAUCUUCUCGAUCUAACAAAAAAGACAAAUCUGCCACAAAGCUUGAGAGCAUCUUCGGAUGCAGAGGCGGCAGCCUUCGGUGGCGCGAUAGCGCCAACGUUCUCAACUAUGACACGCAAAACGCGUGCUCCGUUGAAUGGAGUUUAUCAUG

- Variants of: B1
- PROTOCOL NOTES: polymerase ribozyme fitness, log enrichment relative to wild type (log ratio); higher = more active; in vitro selection for triplet polymerase activity
This sample holds only a part of the variants without activity.

Worked cases, answers included:
1) A16G C18A A26G C38U G42C G81A C87A C116A: ≤ -4.2
2) G71A A107U G133C: ≤ -4.2
3) C14A A20U C85A U109G: ≤ -4.2
4) U53A G126A: -0.879
5) C57G G71U C72G G84U G133U A137U: ≤ -4.2

Can you give me polymerase ribozyme fitness (log ratio) for all of these, one by one?
1. G11C C32G G34C G88C A106G C108A A110U C149G
2. U82C C96G A120U U127G
3. A24U A28U A39C G59C A60U A66G G68C C79G G81A C116G C125U
4. A60G G67U C93G U102C
5. A28U A37C U139C U151G
6. A3G A97C A107G
7. U82C C96A

Output line:
1: ≤ -4.2; 2: -2.72; 3: ≤ -4.2; 4: ≤ -4.2; 5: ≤ -4.2; 6: ≤ -4.2; 7: -0.964
